B1: LINE1-full (parent)
chain: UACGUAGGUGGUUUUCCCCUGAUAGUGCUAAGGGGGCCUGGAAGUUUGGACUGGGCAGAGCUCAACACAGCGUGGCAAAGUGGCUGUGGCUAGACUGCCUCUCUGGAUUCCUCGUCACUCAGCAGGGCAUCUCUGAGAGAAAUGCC

# Variants of: B1
# method: self-cleavage, relative activity (ratio to wild type); higher = more cleavage; in vitro, sequencing; the parent is a self-cleaving ribozyme
observation type: self-cleavage
Give bare numbers.

Solved entries:
I'd like to know its self-cleavage. The variant in question is G53U A94G
0.2

Recorded self-cleavage for U73G U134A , please?
0.88

May I ask what self-cleavage has been recorded for A67U A117G ?
0.19

Can you share its self-cleavage? I mean this variant: A31U U91C
0.38

# batch: return self-cleavage for each of the 7 variants below
1. A6U U12C
2. U108A A140G
3. A6G U112A
4. A30U A67U
5. A129U U132A
6. U15C A43U
7. A78U U104A

1: 1.43; 2: 1.58; 3: 0.95; 4: 0.1; 5: 0.04; 6: 1.09; 7: 1.8

Provide reported self-cleavage for each item, in the same order as listed.
1. U46C U73A
2. C90U A138G
3. C110A G122A
4. G48A U100C
5. A22U A31G
6. U47A A69U

1. 1.68
2. 0.04
3. 0.9
4. 1.9
5. 1.04
6. 0.04

Would you mind listing self-cleavage for each of the following variants?
1. G33C U100C
2. U52A C123U
3. G60A A140U
4. U1A G97A
5. U20C G74U
6. A69U C71U
7. U14A A77C

1: 1.63; 2: 1.11; 3: 0.03; 4: 0.38; 5: 1.46; 6: 0.02; 7: 0.88

Each variant below has a recorded value; state its self-cleavage.
1. A69G C71U
2. U15A A59G
3. G74C C99U
4. A30G C66U

0.1
0.08
0.61
0.05

All figures here come from the RNAGym collection of RNA variant scans (doi:10.7554/elife.90254).
